Source: patent US10800784B2

# Assay System: human PDHK1 (hPDHK1) (Homo sapiens (Human), UniProt Q15118)
# Sequence (Q15118 29-436): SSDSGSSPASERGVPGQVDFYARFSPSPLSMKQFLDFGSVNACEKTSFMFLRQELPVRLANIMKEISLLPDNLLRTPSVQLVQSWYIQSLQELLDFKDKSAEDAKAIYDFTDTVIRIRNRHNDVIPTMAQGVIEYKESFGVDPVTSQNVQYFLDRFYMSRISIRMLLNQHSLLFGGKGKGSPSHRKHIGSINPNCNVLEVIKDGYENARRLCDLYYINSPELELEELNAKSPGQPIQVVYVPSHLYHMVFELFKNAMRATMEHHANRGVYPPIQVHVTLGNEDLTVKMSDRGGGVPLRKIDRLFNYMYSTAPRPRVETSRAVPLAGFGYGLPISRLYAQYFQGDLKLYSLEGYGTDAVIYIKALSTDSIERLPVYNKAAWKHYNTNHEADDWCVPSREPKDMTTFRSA
# Assay: Inhibitory action of PDHK1 activity in vitro (residual PDH activity after PDHK reaction)
# Test Conditions: PDH/hPDHK1 complex solution, PDHK reaction at room temperature for 45 min, NADH absorbance at 340 nm; read-out: hPDK1 IC50
Parameter: IC50

* C[C@H]1CN(C(=O)c2cccc(-c3ccc(F)cc3)n2)Cc2cnc([C@@](C)(O)C(F)(F)F)n21 [Example 38] | < 3 nM
* C[C@H]1CN(C(=O)[C@@H]2c3ccccc3CCN2C)Cc2onc([C@@](C)(O)C(F)(F)F)c21 [Example 106] | < 3 nM
* C[C@H]1CN(C(=O)c2cc(C3CC3)nn2C)Cc2cnc([C@@](C)(O)C(F)(F)F)n21 [Example 14] | < 3 nM
